Reported relative viability values are given for each entry in this list.
Tested on: LU99A
Procedure text: relative viability (nuclei count vs DMSO), 5 days (fraction); higher = more cells survive
Details: first compound 0.005 µM
Enter the number alone.

- Compound: "CC1(C)CCC(c2ccc(Cl)cc2)=C(CN2CCN(c3ccc(C(=O)NS(=O)(=O)c4ccc(N[C@H](CCN5CCOCC5)CSc5ccccc5)c(S(=O)(=O)C(F)(F)F)c4)cc3)CC2)C1 [Navitoclax] + Cc1nc(Nc2ncc(C(=O)Nc3c(C)cccc3Cl)s2)cc(N2CCN(CCO)CC2)n1 [Dasatinib] (partner 0.075 µM)"
  relative viability: 0.542
- Compound: "CC1(C)CCC(c2ccc(Cl)cc2)=C(CN2CCN(c3ccc(C(=O)NS(=O)(=O)c4ccc(N[C@H](CCN5CCOCC5)CSc5ccccc5)c(S(=O)(=O)C(F)(F)F)c4)cc3)CC2)C1 [Navitoclax] + CC(=O)c1c(C)c2cnc(Nc3ccc(N4CCNCC4)cn3)nc2n(C2CCCC2)c1=O [Palbociclib] (partner 0.5 µM)"
  relative viability: 0.392

Now consider the entry below.
## Input Could you tell me which relative viability is on file for CC1(C)CCC(c2ccc(Cl)cc2)=C(CN2CCN(c3ccc(C(=O)NS(=O)(=O)c4ccc(N[C@H](CCN5CCOCC5)CSc5ccccc5)c(S(=O)(=O)C(F)(F)F)c4)cc3)CC2)C1 [Navitoclax] + Nc1nc2[nH]cc(CCc3ccc(C(=O)N[C@@H](CCC(=O)O)C(=O)O)cc3)c2c(=O)[nH]1 [Pemetrexed] (partner 0.2 µM) ?
## Output 0.202
